Listed compounds paired with reported growth
- Test system: MDA-MB-468 breast
- assaySummary: NCI-60 one-dose screen, 48 h (100 = growth as untreated, 0 = no growth, -100 = all killed)
- setupConditions: 10 µM unless noted
The panel holds about 83,000 compounds, 20% with a hit somewhere; the sample as a whole holds those more often.
observable: growth (%)

compound | recordedResult
Cc1c([N+](=O)[O-])cc(C(C)(C)C)cc1[N+](=O)[O-] | 90.6
C/C=C(/C)n1cnc2c(Nc3ccccn3)nc(Cl)nc21 | 93
O=c1sn(-c2cccc3ccccc23)c(=O)n1Cc1ccccc1 | 106
CCc1ccccc1NC(=O)c1sc2nc3c(cc2c1N)C(=O)CCC3 | 43.3
C1CNC(C2=NCCN2)=N1 | -26.9
CCOC(=O)Nc1cc(-c2ccc(C)c(NS(C)(=O)=O)c2)nn2c(C)nnc12 | -26
COc1ccc(C2CC(c3cccc(Nc4ccnc5cc(Cl)ccc45)c3)=NN2c2ccc(Cl)cc2)cc1 (configuration not stated) | 64

Values were extracted from PubChem BioAssay (NCI).
